Kindly state activity for each of the entries shown.
Test Target: Catechol O-methyltransferase (Homo sapiens)
Experimental Protocol: Confirmatory Screen for Target Class Profiling of Small Molecule Inhibitors of Methyltransferases (AID 1745852)
Stated Conditions: MTase-Glo luminescence, SAH detection, recombinant enzyme; measured here: COMT max response; stronger effect = lower value
Give bare numbers, in %.

| Compound | Units Of Measure | activity |
| --- | --- | --- |
| COC(=O)c1ccc(=O)c2nc3/c(=C/O)c(O)cc(=O)c3[nH]c12 | % | -24.9 |
| Nc1nc(NCC2CCC(CNS(=O)(=O)c3cccc4ccccc34)CC2)nc2ccccc12 (stereo not given) | % | -12.1 |
| c1ccc(Cn2c(-c3ccc(OCC(C4CCNCC4)n4c(-c5ccccc5)nc5ccccc54)cc3)nc3ccccc32)cc1 (stereo not given) | % | -14.2 |

Kindly give each listed record's activity.
1. COc1cc(N2CCOCC2)ccc1Nc1ncc(F)c(Nc2ccccc2NS(C)(=O)=O)n1
2. CN(Cc1ccc(C(=O)O)cc1)c1ccc(OCc2c(-c3c(Cl)cccc3Cl)noc2C2CC2)nc1C(F)(F)F
3. COc1ccc2c(c1)C[C@H](C(=O)Nc1ccc(-c3cn[nH]c3)cc1OCCN(C)C)CO2
4. Nc1ncnc2c1c(I)cn2C1OC(CO)C(O)C1O (stereo not given)
5. Cc1cc(C)c(NC(=O)N(Cc2ccc3c(c2)Cc2ccccc2-3)C2CCCCCC2)c(C)c1
6. CC1=CC(=O)[C@@]2(C(C)C)C[C@@H]12

-0.204
-2.57
-2.58
-96.2
-9.37
-4.64

Query (compound): CN(Cc1nccs1)c1ncnc2ccc(-c3ccc4c(c3)OCO4)cc12 ; field requested: activity
-82.4
